Target: Serine/threonine-protein kinase tousled-like 2 (Homo sapiens) (UniProt Q86UE8)
Sequence (Q86UE8 whole entry, looked up): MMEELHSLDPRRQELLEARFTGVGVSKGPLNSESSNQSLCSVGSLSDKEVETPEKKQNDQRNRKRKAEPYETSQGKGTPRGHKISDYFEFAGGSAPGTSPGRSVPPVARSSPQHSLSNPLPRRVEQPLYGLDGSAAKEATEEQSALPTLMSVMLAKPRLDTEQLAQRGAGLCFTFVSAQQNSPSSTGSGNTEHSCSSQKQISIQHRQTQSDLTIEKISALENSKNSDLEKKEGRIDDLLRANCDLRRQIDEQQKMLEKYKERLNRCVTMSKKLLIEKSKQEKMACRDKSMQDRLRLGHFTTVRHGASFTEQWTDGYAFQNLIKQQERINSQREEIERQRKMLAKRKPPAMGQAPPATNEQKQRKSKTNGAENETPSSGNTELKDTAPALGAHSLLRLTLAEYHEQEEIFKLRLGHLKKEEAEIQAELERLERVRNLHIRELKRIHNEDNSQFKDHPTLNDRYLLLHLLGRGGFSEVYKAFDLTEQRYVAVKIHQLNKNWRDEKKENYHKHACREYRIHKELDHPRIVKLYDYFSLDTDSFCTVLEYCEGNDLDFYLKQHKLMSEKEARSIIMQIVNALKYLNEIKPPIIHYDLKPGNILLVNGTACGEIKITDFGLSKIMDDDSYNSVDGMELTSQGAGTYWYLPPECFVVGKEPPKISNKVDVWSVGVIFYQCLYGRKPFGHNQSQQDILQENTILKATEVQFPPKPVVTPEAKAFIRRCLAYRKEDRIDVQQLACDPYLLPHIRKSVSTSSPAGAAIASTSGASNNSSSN
Conditions: at 10 µM
value-type: residual activity
Note to self: number, then unit, no commentary.

Below are worked cases with known answers.
[[record]]
smiles_record = "CCOc1cc2ncnc(Nc3cccc(Br)c3)c2cc1OCC"
test_result = "95%"

[[record]]
smiles_record = "CCC(=O)Nc1ccc2ncnc(Nc3cccc(Br)c3)c2c1"
test_result = "92%"

[[record]]
smiles_record = "CO[C@H]1[C@@H](OC)C[C@H](C)[C@@H](OC)C2=CC(=O)C=C(NC(=O)/C(C)=C/C=C/[C@H](OC)[C@@H](OC(N)=O)/C(C)=C/[C@@H]1C)C2=O"
test_result = "95%"

[[record]]
smiles_record = "O=C(Nc1cccc(Nc2nccc(Nc3cccc(C(F)(F)F)c3)n2)c1)C1CC1"
test_result = "93%"


Tested on Serine/threonine-protein kinase tousled-like 2 (Homo sapiens) (UniProt Q86UE8): CN(C)CCCn1cc(C2=C(c3c[nH]c4ccccc34)C(=O)NC2=O)c2ccccc21 . Observed residual activity: 2%

###

Measured residual activity by item
Target: RAF proto-oncogene serine/threonine-protein kinase (Homo sapiens) (UniProt P04049)
Sequence (P04049 whole entry): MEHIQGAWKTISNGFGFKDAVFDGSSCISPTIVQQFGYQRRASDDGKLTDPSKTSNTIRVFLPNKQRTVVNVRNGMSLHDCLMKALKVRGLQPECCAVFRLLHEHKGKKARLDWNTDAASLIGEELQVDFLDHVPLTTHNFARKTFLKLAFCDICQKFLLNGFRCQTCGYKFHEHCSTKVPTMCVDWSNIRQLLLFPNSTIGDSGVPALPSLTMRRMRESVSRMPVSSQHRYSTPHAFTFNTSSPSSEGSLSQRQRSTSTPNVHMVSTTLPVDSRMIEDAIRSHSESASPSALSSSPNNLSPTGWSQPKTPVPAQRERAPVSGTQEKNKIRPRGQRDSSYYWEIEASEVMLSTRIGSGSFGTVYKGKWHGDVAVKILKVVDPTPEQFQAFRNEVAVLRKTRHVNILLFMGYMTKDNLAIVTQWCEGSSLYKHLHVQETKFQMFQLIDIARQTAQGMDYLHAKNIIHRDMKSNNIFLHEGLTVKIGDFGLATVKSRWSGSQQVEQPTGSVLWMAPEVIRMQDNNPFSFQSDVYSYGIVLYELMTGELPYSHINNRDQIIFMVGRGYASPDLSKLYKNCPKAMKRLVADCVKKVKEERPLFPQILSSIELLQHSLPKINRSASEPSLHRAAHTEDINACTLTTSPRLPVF
Conditions: at 1 µM
Reply with a number, then the unit it belongs to.

Here are 8 molecules together with their reported answers.
[[record]]
smiles_record = "Cn1nc2c3c(cccc31)C(=O)c1ccccc1-2"
value_type = "residual activity"
test_result = "80%"

[[record]]
smiles_record = "Oc1c2ccccc2c2c3c(cccc13)N=N2"
value_type = "residual activity"
test_result = "69%"

[[record]]
smiles_record = "COc1cc2ncnc(Nc3ccc(NC(=O)c4ccccc4)cc3)c2cc1OC"
value_type = "residual activity"
test_result = "86%"

[[record]]
smiles_record = "CC(C)n1cnc2/c(=N/c3cccc(Cl)c3)nc(NCCO)[nH]c21"
value_type = "residual activity"
test_result = "70%"

[[record]]
smiles_record = "O=Nc1c(-c2c(O)[nH]c3ccccc23)[nH]c2ccccc12"
value_type = "residual activity"
test_result = "89%"

[[record]]
smiles_record = "CC(C)n1cnc2c(NCc3ccccc3)nc(NCCCO)nc21"
value_type = "residual activity"
test_result = "85%"

[[record]]
smiles_record = "Oc1ccc(-c2nc(-c3ccc(F)cc3)c(-c3ccncc3)[nH]2)cc1"
value_type = "residual activity"
test_result = "14%"

[[record]]
smiles_record = "O=[N+]([O-])c1ccc(-c2nc(-c3ccc(F)cc3)c(-c3ccncc3)[nH]2)cc1"
value_type = "residual activity"
test_result = "20%"


So, CN(C)CCCn1cc(C2=C(c3c[nH]c4ccccc34)C(=O)NC2=O)c2ccccc21 ? Its residual activity was 113%

Looking up Cc1nc(-c2ccccc2)c(-c2ccncc2)o1 , I found its residual activity recorded as 60%

The molecule listed as Cc1ccc(S(=O)(=O)/C=C/C#N)cc1 has a reported residual activity of 91%

Noted for c1ccc2c(-c3ccncc3)c[nH]c2c1 : its residual activity reads 73%

###

Biological target: Dual specificity mitogen-activated protein kinase kinase 6 (Homo sapiens)
Conditions: at 10 µM
Entries whose residual activity is below 70% take True; entries at or above 70% take False.

Solved entries (count: 3):
[[record]]
compound = "CC(=O)c1ccc(N2CCOCC2)cc1O"
experimental_target = "Dual specificity mitogen-activated protein kinase kinase 6 (Homo sapiens)"
label_value = "False"

[[record]]
compound = "Nc1n[nH]c2nnc(-c3c(-c4ccccc4)nn4ccccc34)cc12"
experimental_target = "Dual specificity mitogen-activated protein kinase kinase 6 (Homo sapiens)"
label_value = "True"

[[record]]
compound = "O=Nc1c(-c2c(O)[nH]c3ccccc23)[nH]c2ccccc12"
experimental_target = "Dual specificity mitogen-activated protein kinase kinase 6 (Homo sapiens)"
label_value = "True"


I wonder whether O=C1Nc2ccccc2/C1=C1/Nc2ccccc2/C1=N\OCCC(O)CO (stereo unspecified) has residual activity below 70%. Can you tell?
True

Does the reported residual activity of COc1ccc(S(=O)(=O)N(CCO)c2ccccc2CN(C)C/C=C/c2ccc(Cl)cc2)cc1 stay below 70%?
False

Is residual activity strictly under 70% for the entry Cn1cnc2cc3c(Nc4cccc(Br)c4)ncnc3cc21 ?
False

For O=C1Nc2ccc(Br)cc2/C1=C\c1cc2c([nH]1)CCCC2 , is the recorded residual activity below the cut-off of 70%?
False

Please state whether residual activity is below 70% for CCN(CC)C(=O)c1ccc(Nc2nc(OCC3CCCCC3)c3nc[nH]c3n2)cc1
True

# check: residual activity < 70% for CC(C)n1cnc2c(NCc3ccccc3)nc(NCCCO)nc21
False

Lab note: residual activity threshold 70%. Does this compound come in strictly under it? c1ccc(-c2n[nH]c3c2oc2ccccc23)cc1
False

Does the reported residual activity of the following compound sit strictly below 70%? Cc1cccc(-c2[nH]c(C(C)(C)C)nc2-c2ccc3c(c2)OCO3)n1
True

Data credit: ChEMBL document CHEMBL2218924
